Where do these numbers come from? They come from ChEMBL document CHEMBL1158972.

For each record, write down the corresponding MIC.
Tested on: Bacillus subtilis
Experiment: Antimicrobial activity against Bacillus subtilis assessed per disk
Format: functional
Record the value in µg, omitting the unit from your answer.

The reported MIC of the compound C=Cc1nccc2c1[nH]c1c(OC(C)=O)cccc12 was 7.5

The reported MIC of the compound CCc1nccc2c1[nH]c1c(O)cccc12 was 30

The reported MIC of the compound c1ccc2c(c1)[nH]c1cnccc12 was 7.5

The reported MIC of the compound C=Cc1nccc2c1[nH]c1c(O)cccc12 was 7.5

The reported MIC of the compound CC(C)c1nccc2c1[nH]c1ccccc12 was 7.5

The reported MIC of the compound C=Cc1nccc2c1[nH]c1ccccc12 was 1.9

The reported MIC of the compound Cc1nccc2c1[nH]c1ccccc12 was 7.5

The reported MIC of the compound C=Cc1nccc2c1[nH]c1c(OC)cccc12 was 7.5

The reported MIC of the compound CCc1nccc2c1[nH]c1ccccc12 was 7.5

The reported MIC of the compound CCc1ncc(S(C)(=O)=O)c2c1[nH]c1ccccc12 was 30

* * *

Test: Cytotoxicity against african green monkey BSC1 cells at 20 ug/disk
Format: cell-based
Details: chlorocebus aethiops, bsc-1
VALUE KIND: inhibition zone (IZ)

Check out these entries, answers already filled in.
The reported inhibition zone (IZ) of the compound CCc1ncc(S(C)(=O)=O)c2c1[nH]c1ccccc12 was Not Active

The reported inhibition zone (IZ) of the compound COC(=O)C1Cc2c([nH]c3ccccc23)C(C)N1 (stereo not given) was Not Active

The reported inhibition zone (IZ) of the compound CCc1nccc2c1[nH]c1c(O)cccc12 was Not Active

The reported inhibition zone (IZ) of the compound c1ccc2c(c1)[nH]c1cnccc12 [NORHARMANE] was Not Active

The reported inhibition zone (IZ) of the compound CCc1nccc2c1[nH]c1c(OC)cccc12 was Not Active

The reported inhibition zone (IZ) of the compound Cc1nccc2c1[nH]c1ccccc12 [HARMAN] was Not Active

***
The reported inhibition zone (IZ) of the compound CC1NC(C(=O)O)Cc2c1[nH]c1ccccc21 (stereo not given) was Not Active

The reported inhibition zone (IZ) of the compound CCc1nccc2c1[nH]c1ccccc12 was Not Active

The reported inhibition zone (IZ) of the compound CCCc1nccc2c1[nH]c1ccccc12 was Not Active

The reported inhibition zone (IZ) of the compound CC(C)c1nccc2c1[nH]c1ccccc12 was Not Active

* * *

Test: Cytotoxicity against african green monkey BSC1 cells at 2 ug/disk
Assay type: cell-based
Conditions: chlorocebus aethiops, bsc-1
VALUE KIND: inhibition zone (IZ)

The reported inhibition zone (IZ) of the molecule C=Cc1nccc2c1[nH]c1c(O)cccc12 was Active

The reported inhibition zone (IZ) of the molecule C=Cc1nccc2c1[nH]c1ccccc12 was Active

The reported inhibition zone (IZ) of the molecule C=Cc1nccc2c1[nH]c1c(OC(C)=O)cccc12 was Active

The reported inhibition zone (IZ) of the molecule C=Cc1nccc2c1[nH]c1c(OC)cccc12 was 2 mm

* * *

For each record, write down the corresponding IC50.
Tested on: P388
Assay: Cytotoxicity against mouse P388 cells
Assay type: functional, cell-based

The reported IC50 of the compound CCCc1nccc2c1[nH]c1ccccc12 was 25 µg/mL

The reported IC50 of the compound CCc1nccc2c1[nH]c1ccccc12 was 25 µg/mL

The reported IC50 of the compound C=Cc1nccc2c1[nH]c1ccccc12 was 0.1 µg/mL

The reported IC50 of the compound CCCCCCc1nccc2c1[nH]c1ccccc12 was 9 µg/mL

The reported IC50 of the compound CCc1ncc(S(C)(=O)=O)c2c1[nH]c1ccccc12 was > 12.5 µg/mL

The reported IC50 of the compound C=Cc1nccc2c1[nH]c1c(OC(C)=O)cccc12 was 0.65 µg/mL

The reported IC50 of the compound CCc1nccc2c1[nH]c1c(OC)cccc12 was > 12.5 µg/mL

The reported IC50 of the compound c1ccc2c(c1)[nH]c1cnccc12 [NORHARMANE] was 25 µg/mL

The reported IC50 of the compound C=Cc1nccc2c1[nH]c1c(OC)cccc12 was 0.1 µg/mL

The reported IC50 of the compound Cc1nccc2c1[nH]c1ccccc12 [HARMAN] was 25 µg/mL

The reported IC50 of the compound CCc1nccc2c1[nH]c1c(O)cccc12 was > 12.5 µg/mL

The reported IC50 of the compound CC1NC(C(=O)O)Cc2c1[nH]c1ccccc21 (centres undefined) was > 125 µg/mL

The reported IC50 of the compound CC(C)c1nccc2c1[nH]c1ccccc12 was 13 µg/mL

The reported IC50 of the compound COC(=O)C1Cc2c([nH]c3ccccc23)C(C)N1 (centres undefined) was 120 µg/mL
